// provenance: the supplement of paper PMC10724198

- System: Saccharomyces cerevisiae
- assayDetails: protein stability index of tFT-peptide fusion (C-terminal peptide) (PSI (0-1 scale)); higher = more stable (slower turnover)
- details: genetic background: wild type; temperature: 30 C
readout: protein stability index
No unit in the answer, please; the number alone is enough.

MKEKLKHSRKYM [SHY1 C-terminal 12 aa]	0.668
AIEEGAGAFLLS [UFD4 C-terminal 12 aa]	0.677
RSTNGRPQRGYR [YLR326W C-terminal 12 aa]	0.664
KLDEAEMQGLIM [YMR158C-A C-terminal 12 aa]	0.724
VSNASNGCVLDA [ILV3 C-terminal 12 aa]	0.707

Entry DKIDVVLKKISQ [ECM15 C-terminal 12 aa] — recorded protein stability index = 0.683

For IYIYTSTLQLCV [YHR028W-A C-terminal 12 aa] the sequence record lists protein stability index as 0.362

Lookup result for ILRNASQIVSSV [VPS1 C-terminal 12 aa] ; measured protein stability index: 0.694

====

- Tested on: Saccharomyces cerevisiae
- assayDetails: protein stability index of tFT-peptide fusion (C-terminal peptide) (PSI (0-1 scale)); higher = more stable (slower turnover)
- details: genetic background: wild type; temperature: 30 C
readout: protein stability index
// no unit string in output, number only

Here is how some sequences turned out for protein stability index.
GAGNVGSGCGGG	0.631
GLVVCGGQVVEG	0.704
PPPVSLFSPRSL	0.781
LPPPPHRSRPPP	0.66
DSPPMTALITDF	0.697

Short answer for KNQLKKPINKSK : protein stability index was 0.734

Notebook: VHESARAAGSDW , protein stability index read as 0.647

Measured protein stability index of GTCWGGAMGVVG : 0.728

Notebook: AIKGIYPRCYFI , protein stability index read as 0.697

PSPPTYPSFPSR has a reported protein stability index of 0.724

Reported protein stability index ( RGGGFIGSFFMG ) = 0.751

The recorded protein stability index for PSVLGCIVPLIW is 0.72

The recorded protein stability index for entry FWFFRGALVHPA equals 0.599

Recorded result, NSRLLPWRHELR , protein stability index: 0.784

# protein stability index (sequence: SPPPFPPSPSPP ) is 0.715

Form: sequence = GGVTEGPGWCVR ; protein stability index = 0.735

YHIGSINLTVRQ has a reported protein stability index of 0.778

Form: sequence = MYRLSFAAGRGS ; protein stability index = 0.688

The sequence identified as DPPPHPPPASPT registered its protein stability index at 0.7

====

- Test system: Saccharomyces cerevisiae
- assayDetails: protein stability index of tFT-peptide fusion (C-terminal peptide) (PSI (0-1 scale)); higher = more stable (slower turnover)
- details: genetic background: wild type; temperature: 37 C
Output schema: class label derived from protein stability index. Mapping: L (below 0.4), M (0.4 to below 0.5), H (0.5 or more)

Worked cases, answers included:
AFCGRRGHQFYN	M
VFFLLSVYMVMM	L

Note: attention shifts to another entry.
Inquiry: Could you place LLSFSQLGYFVL in its proper category? Many thanks.
Reply text: L

====

- System: Saccharomyces cerevisiae
- assayDetails: protein stability index of tFT-peptide fusion (C-terminal peptide) (PSI (0-1 scale)); higher = more stable (slower turnover)
- details: genetic background: wild type; temperature: 30 C
protein stability index values for the sequences below.

TGGCSSSKFSLS [SKN1 C-terminal 12 aa]	0.69

Reported protein stability index ( PIQQSIAHINPP [LDS2 C-terminal 12 aa] ) = 0.69

====

- Tested on: Saccharomyces cerevisiae
- assayDetails: protein stability index of tFT-peptide fusion (C-terminal peptide) (PSI (0-1 scale)); higher = more stable (slower turnover)
- details: genetic background: cdc53-1; temperature: 37 C
Please map values of protein stability index to classes as shown: zone 1 (below 0.5), zone 2 (0.5 to below 0.7), zone 3 (0.7 or more)

Inquiry: Dear colleague, I would appreciate it if you could identify the bin for LDLSSVFILYFN and reply at your convenience.
Reply text: zone 2

Inquiry: Band for GLLLVWAALGFV ?
Reply text: zone 1

Inquiry: Class? Entry: NQIIRLIVGLLC
Reply text: zone 2

Inquiry: # classify by protein stability index band: FNLTCLLISFFN
Reply text: zone 2

Inquiry: Classify this sequence: VCILLVAWCLMG
Reply text: zone 1

Inquiry: Category of CLTGWFGIFSAP :
Reply text: zone 3

Inquiry: Just checking, what class would you give SPSSLPRPLFLS here?
Reply text: zone 3

Inquiry: Class label required: LFAIFLVVLLFR
Reply text: zone 1

Inquiry: Which bin should I file VGRANLSVIRKV under?
Reply text: zone 3

Inquiry: Band for FSGFPLTLSPPL ?
Reply text: zone 3

Inquiry: Entry FPLGMFWVCFFV belongs to which category?
Reply text: zone 1

Inquiry: Exam item: assign LSFLALLLFFRI to the correct category.
Reply text: zone 1

Inquiry: The entry to classify is VGAVGVCILFVW ; which class holds it?
Reply text: zone 1

Inquiry: Each sequence maps to one class by protein stability index. Which class for FLLPILSSSPVL ?
Reply text: zone 3

Inquiry: Class for PCPAPRPPSPSA ?
Reply text: zone 3

====

- Test system: Saccharomyces cerevisiae
- assayDetails: protein stability index of tFT-peptide fusion (C-terminal peptide) (PSI (0-1 scale)); higher = more stable (slower turnover)
- details: genetic background: wild type; temperature: 30 C
Recorded protein stability index for the following sequences
Please give only the number in your answer, with no unit.

CLAAPIQDGGLT	0.684

protein stability index in this record for VNMMYEIWPLGN : 0.624

Entry under test: PPPSPLPSPPPP . Its protein stability index was 0.592

Value of protein stability index reported for the sequence INRLKPGRGQKT is 0.658

====

- Test system: Saccharomyces cerevisiae
- assayDetails: protein stability index of tFT-peptide fusion (C-terminal peptide) (PSI (0-1 scale)); higher = more stable (slower turnover)
- details: genetic background: wild type; temperature: 30 C
readout: protein stability index

PPPPPPHPLLST	0.708
LLDLVVTAMCVL	0.587
IERCGIVKEVKG	0.74
RIHAVINLLMND	0.651
RGGGGGSVSFWW	0.676
KADVSIRYGINN	0.714
ARADILLLTWGV	0.604
SPGRPGLGGGAW	0.776

Lab entry: Saccharomyces cerevisiae assay, sequence PPRPLPPPRPSS , protein stability index = 0.691

Kindly note: Saccharomyces cerevisiae, YAVIRILCSSRR , protein stability index value reported: 0.572

====

Parameter protein stability index: see the listing below.
- Test system: Saccharomyces cerevisiae
- assayDetails: protein stability index of tFT-peptide fusion (C-terminal peptide) (PSI (0-1 scale)); higher = more stable (slower turnover)
- details: genetic background: wild type; temperature: 30 C
Format: numeric value only, no unit, no commentary.

LTPAPSSCLRSP	0.686

So, PFLPSPPPPVPI ? Its protein stability index was 0.712

# protein stability index (sequence: SGVCGRVGGGLR ) is 0.622

Consider LYVLNILSFVCV . Its measured protein stability index is 0.169

Briefly, protein stability index measured for VLVRYSAGTGGT : 0.605

Record WACYRLGCGGSW . Reported protein stability index: 0.774

====

- Test system: Saccharomyces cerevisiae
- assayDetails: protein stability index of tFT-peptide fusion (C-terminal peptide) (PSI (0-1 scale)); higher = more stable (slower turnover)
- details: genetic background: das1 deletion; temperature: 30 C
Entries and their protein stability index values follow.
// no unit, no text: just the number

Solved cases below.
EYEYEDDGLFER [GCD1 C-terminal 12 aa]	0.695
INKRAVSNSKDV [RFT1 C-terminal 12 aa]	0.692
ILKELSNLETLY [RPB4 C-terminal 12 aa]	0.718

Consider the additional sequence presented here.
Please fill in: protein stability index reported for PSPYYVSEVPVS [Q0010 C-terminal 12 aa] = 0.637

====

- Test system: Saccharomyces cerevisiae
- assayDetails: protein stability index of tFT-peptide fusion (C-terminal peptide) (PSI (0-1 scale)); higher = more stable (slower turnover)
- details: genetic background: wild type; temperature: 30 C
readout: protein stability index
Give the figure only, with no unit attached.

The reported value for FTNLDYTKEKNN in terms of protein stability index is 0.29

The sequence EKRQNLKPMRTV showed protein stability index equal to 0.686

sequence HPLLTPTPHKPD , protein stability index observed: 0.699

Measured protein stability index of RGWWVRGGVLWC : 0.677

protein stability index reading for LLSFSQLGYFVL : 0.212

# sequence ERLSEYYPLIKC ; its protein stability index = 0.602

// recorded protein stability index for EKSKNQKPHAAR : 0.633

Sure, the documented protein stability index for GCSGRRGRGGRG is 0.743

DNEMLQICRSRW yielded protein stability index of 0.774

Memo: GLREGRRRSNDQ , reported protein stability index: 0.653

Form field protein stability index, entry SPPCPPPLAPPP : 0.758

Short answer for CSPRPPPRSLHP : protein stability index was 0.812

protein stability index in this record for SVVSWRGRNRSV : 0.864

protein stability index reading for PYQPSPFRLAAG : 0.67

Entry under test: FGVTLGYFSSVE . Its protein stability index was 0.656

For this sequence ( RTSLGFSPLIHQ ), measured protein stability index is 0.682
